# System: T1, hSorCS2-6his (extracellular domain of human SorCS2 with a C-terminal 6His-tag) (human, UniProt Q96PQ0 51-1076)
# T1 construct: Made in CHO-K1 cells and purified from the medium; For crystallisation the protein was deglycosylated with PNGaseF; also called soluble human SorCS2; hSorCS2 extracellular domain
# T1 sequence (Q96PQ0 other isoform, or with tags, fused parts or gaps): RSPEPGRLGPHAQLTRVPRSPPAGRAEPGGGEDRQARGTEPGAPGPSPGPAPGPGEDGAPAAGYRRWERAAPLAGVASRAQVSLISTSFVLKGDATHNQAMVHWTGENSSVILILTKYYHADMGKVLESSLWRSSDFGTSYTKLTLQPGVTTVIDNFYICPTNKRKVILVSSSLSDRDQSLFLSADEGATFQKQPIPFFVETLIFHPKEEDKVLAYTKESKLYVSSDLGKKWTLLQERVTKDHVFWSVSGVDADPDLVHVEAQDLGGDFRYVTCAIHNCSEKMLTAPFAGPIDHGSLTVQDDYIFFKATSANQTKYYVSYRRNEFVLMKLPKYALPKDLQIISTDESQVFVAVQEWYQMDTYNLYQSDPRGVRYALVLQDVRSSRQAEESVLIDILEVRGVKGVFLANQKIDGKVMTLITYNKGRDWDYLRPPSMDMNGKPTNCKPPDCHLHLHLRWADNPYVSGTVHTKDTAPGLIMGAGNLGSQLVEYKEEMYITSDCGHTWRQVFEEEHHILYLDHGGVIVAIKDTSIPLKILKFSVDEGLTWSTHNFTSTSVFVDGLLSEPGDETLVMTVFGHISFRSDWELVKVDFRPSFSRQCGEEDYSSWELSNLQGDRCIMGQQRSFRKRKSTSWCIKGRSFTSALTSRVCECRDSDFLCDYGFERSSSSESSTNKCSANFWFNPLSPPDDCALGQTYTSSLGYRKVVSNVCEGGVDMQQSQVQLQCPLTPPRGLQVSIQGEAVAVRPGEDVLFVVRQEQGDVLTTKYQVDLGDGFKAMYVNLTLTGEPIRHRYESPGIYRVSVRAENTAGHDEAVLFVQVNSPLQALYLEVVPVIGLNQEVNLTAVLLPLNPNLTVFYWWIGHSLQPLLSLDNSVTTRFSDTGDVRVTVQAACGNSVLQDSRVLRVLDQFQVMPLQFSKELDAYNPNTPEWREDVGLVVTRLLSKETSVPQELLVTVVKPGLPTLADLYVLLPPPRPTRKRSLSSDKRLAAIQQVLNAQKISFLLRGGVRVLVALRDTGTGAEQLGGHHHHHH
# Method: microscale thermophoresis, 25 nM labelled hSorCS2-6his, partner titrated, triplicates
Attribute Measured: Kd

RQLL (also called RQLL peptide; PGRN-derived tetra peptide) [tetrapeptide RQLL]	1000 nM

We now examine a further binder.
Task: What value of Kd has been recorded for this entry: Granulin E (ligand, UniProt P28799 518-593, looked up, domain: Granulin E; also called GrnE) DVECGEGHFCHDNQTCCRDNRQGWACCPYRQGVCCADRRHCCPAGFRCAARGTKCLRREAPRWDAPLRDPALRQLL
Output: 2000 nM

Values compiled from patent US20220259283A1.
